target: human A3 receptor (Homo sapiens, UniProt P0DMS8); construct: expressed in transfected cells; host or cells: CHO; assay: Functional A3 receptor activity, recombinant CHO cells, cAMP (HTRF), forskolin, agonist IB-MECA; assay type: cell-based
Sequence (P0DMS8 whole entry): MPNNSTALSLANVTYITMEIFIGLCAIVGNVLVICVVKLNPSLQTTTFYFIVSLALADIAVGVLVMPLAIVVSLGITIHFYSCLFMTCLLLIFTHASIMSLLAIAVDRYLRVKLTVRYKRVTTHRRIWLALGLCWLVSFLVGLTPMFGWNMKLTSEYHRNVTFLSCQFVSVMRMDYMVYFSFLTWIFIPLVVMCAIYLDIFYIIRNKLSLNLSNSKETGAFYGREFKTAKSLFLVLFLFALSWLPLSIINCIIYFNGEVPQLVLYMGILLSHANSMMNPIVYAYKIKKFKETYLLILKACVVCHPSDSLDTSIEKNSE
OBSERVATION_TYPE: IC50

*Q* Quick check: IC50 of COc1ccc(C2CCOCC2)c2sc(NC(=O)N3CCC4(CC3)OCCO4)nc12 [reference compound] ?
*A* > 1000 nM

---

target: human A2A receptor (Homo sapiens, UniProt P29274); assay: Human T cells, endogenous A2A receptor, cAMP, agonist NECA; type: cell-based; conditions: read-out: hTcell data, cAMP, IC50
Sequence (P29274 whole entry): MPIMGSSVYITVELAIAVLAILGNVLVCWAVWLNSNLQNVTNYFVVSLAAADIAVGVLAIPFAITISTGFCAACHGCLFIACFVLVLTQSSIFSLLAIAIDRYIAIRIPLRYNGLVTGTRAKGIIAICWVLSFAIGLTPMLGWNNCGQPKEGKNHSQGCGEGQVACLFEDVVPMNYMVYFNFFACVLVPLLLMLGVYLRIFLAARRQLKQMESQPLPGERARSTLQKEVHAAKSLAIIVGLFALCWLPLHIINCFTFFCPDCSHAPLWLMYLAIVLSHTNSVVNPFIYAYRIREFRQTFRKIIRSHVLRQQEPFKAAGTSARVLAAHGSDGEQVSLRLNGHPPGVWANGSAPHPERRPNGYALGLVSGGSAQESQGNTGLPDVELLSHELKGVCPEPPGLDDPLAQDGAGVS
pIC50: −log10 of the molar value.
OBSERVATION_TYPE: pIC50

*Q* Record lookup: for human A2A receptor (Homo sapiens, UniProt P29274), what pIC50 belongs to `COc1ncc(C2=CCOCC2)c2sc(NC(=O)Nc3ccc(N4CCCC4=O)cc3)nc12` ?
*A* > 8.00

*Q* Same for `COc1nc(F)c(C2CCOCC2)c2sc(NC(=O)N3CC[C@@]4(CCOC4)C3)nc12`
*A* > 8.00

*Q* Same for `COc1ncc(-c2cnn(CC(F)F)c2)c2sc(NC(=O)N3CCC4(CCOCC4)C3)nc12`
*A* > 7.00

*Q* Same for COc1cnc(N2CCOCC2)c2sc(NC(=O)N3CCC4(CCCO4)CC3)nc12 [drawing 218]
*A* > 6.00

---

molecular target: human A2B receptor (Homo sapiens, UniProt P29275); construct: expressed in transfected cells; host or cells: HEK293; assay: Functional A2B receptor activity, recombinant HEK293 cells, cAMP (HTRF), agonist NECA; assay type: cell-based; conditions: read-out: Functional A2B receptor activity, HEK293, cAMP, IC50
Sequence (P29275 whole entry): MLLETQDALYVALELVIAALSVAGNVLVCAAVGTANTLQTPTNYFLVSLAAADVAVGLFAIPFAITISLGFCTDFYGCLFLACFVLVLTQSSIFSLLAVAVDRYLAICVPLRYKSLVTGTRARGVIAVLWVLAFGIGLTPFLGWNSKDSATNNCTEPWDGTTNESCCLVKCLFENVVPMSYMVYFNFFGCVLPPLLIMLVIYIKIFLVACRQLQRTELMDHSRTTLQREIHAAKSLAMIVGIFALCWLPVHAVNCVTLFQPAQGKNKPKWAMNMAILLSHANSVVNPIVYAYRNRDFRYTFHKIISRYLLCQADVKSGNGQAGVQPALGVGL
Exercise: for every item that follows, state its recorded IC50.

*Q* Quick check: IC50 of COc1ncc(C2=CCOCC2)c2sc(NC(=O)c3cn[nH]c3)nc12 [Compound 116] ?
*A* < 10 nM

*Q* Same for CNc1cccc(-c2cnc(OC)c3nc(NC(=O)N4CCC5(CCOCC5)C4)sc23)c1 [Compound 112]
*A* < 100 nM

*Q* Same for COc1ncc(-c2ccc3cc[nH]c3c2)c2sc(NC(=O)N3CCC4(CCOCC4)C3)nc12 [Compound 9]
*A* < 100 nM

*Q* Same for COc1nc(F)c(N2CCOCC2)c2sc(NC(=O)N3CCC4(CCCOC4)C3)nc12 (centres unmarked) [Compound 7]
*A* < 10 nM

*Q* Same for COc1ncc(C2=CCOCC2)c2sc(NC(=O)Nc3ccc(N4N=C(C)CC4=O)cc3)nc12 [Compound 94]
*A* < 100 nM

*Q* Same for COc1ncc(-c2cnn(Cc3ccccc3)c2)c2sc(NC(=O)N3CCC4(CCOCC4)C3)nc12 [Compound 76]
*A* < 10 nM

*Q* Same for COc1ncc(-c2ccccc2)c2sc(NC(=O)c3ccc(C(=O)O)cc3)nc12 [Compound 109]
*A* < 10 nM

*Q* Same for COc1nc(F)c(-c2ccccc2)c2sc(NC(=O)N3CC[C@]4(CCCOC4)C3)nc12 [Compound 12]
*A* < 10 nM

*Q* Same for COc1ncc(C2=CCOCC2)c2sc(NC(=O)c3ccc([C@@H](C)NC(C)=O)cc3)nc12 [Compound 83]
*A* < 10 nM

*Q* Same for COc1ncc(C2=CCOC2)c2sc(NC(=O)c3c[nH]cn3)nc12 [Compound 43]
*A* < 100 nM

*Q* Same for COc1ncc(-c2cccc(Oc3cccnc3)c2)c2sc(NC(=O)N3CCC4(CCOCC4)C3)nc12 [Compound 160]
*A* < 10 nM

*Q* Same for COc1nc(F)c(C2CCOCC2)c2sc(NC(=O)N3CCC4(CCOCC4)C3)nc12 [Compound 26]
*A* < 100 nM

*Q* Same for COc1ncc(C2=CCOCC2)c2sc(NC(=O)c3ccc(C(=O)NCCN4CCC4)cc3)nc12 [Compound 139]
*A* < 100 nM

*Q* Same for COc1ccc(-c2ccccc2)c2sc(NC(=O)NCCN3CCCCC3)nc12 [drawing 187, reference compound]
*A* > 1000 nM

*Q* Same for COc1nc(F)c(-c2ccccc2)c2sc(NC(=O)N3CC[C@@]4(CCCOC4)C3)nc12 [Compound 13]
*A* < 10 nM

*Q* Same for COc1nc(F)c(N2CCOCC2)c2sc(NC(=O)N3CCC4(CCOC4)C3)nc12 (centres unmarked) [Compound 16]
*A* < 100 nM

*Q* Same for COc1ncc(C2=CCC(F)(F)CC2)c2sc(NC(=O)N3CCC4(CCOCC4)C3)nc12 [Compound 63]
*A* < 100 nM

*Q* Same for COC(=O)N(C)Cc1ccc(C(=O)Nc2nc3c(OC)ncc(C4=CCOCC4)c3s2)cc1 [Compound 167]
*A* < 10 nM

*Q* Same for COc1ncc(C2=CCOCC2)c2sc(NC(=O)c3cnn(-c4ccccc4)c3)nc12 [Compound 156]
*A* < 10 nM

*Q* Same for COc1ncc(-c2ccccc2)c2sc(NC(=O)N3CCC(N4C(=O)CNC4=O)CC3)nc12 [Compound 137]
*A* < 10 nM

*Q* Same for COc1nc(F)c(N2CCOCC2)c2sc(NC(=O)N3CC[C@@]4(CCCOC4)C3)nc12 [Compound 11]
*A* < 10 nM

*Q* Same for COc1ncc(-c2cc(O)ccc2F)c2sc(NC(=O)N3CCC4(CCOCC4)C3)nc12 [Compound 150]
*A* < 100 nM

*Q* Same for COc1nc(F)c(C2CCOCC2)c2sc(NC(=O)N3CC[C@]4(CCOC4)C3)nc12 [Compound 38]
*A* < 10 nM

*Q* Same for COc1nc(F)c(N2CCOCC2)c2sc(NC(=O)c3ccc(-c4nnn[nH]4)cc3)nc12 [Compound 6]
*A* < 10 nM

*Q* Same for O=C(Nc1nc2c(OC(F)F)ncc(-c3ccccc3)c2s1)N1CCC2(CCOCC2)C1 [Compound 80]
*A* < 100 nM

*Q* Same for COc1ncc(C2COCCO2)c2sc(NC(=O)c3ccc(C(=O)O)cc3)nc12 (centres unmarked) [Compound 161]
*A* < 100 nM

*Q* Same for COc1ncc(C2=CCOCC2)c2sc(NC(=O)c3c[nH]cn3)nc12 [Compound 65]
*A* < 10 nM

*Q* Same for COCCOCCn1cc(-c2cnc(OC)c3nc(NC(=O)N4CCC5(CCOCC5)C4)sc23)cn1 [Compound 103]
*A* < 100 nM

*Q* Same for COc1ncc(-c2cnn(C[C@H]3CCCCO3)c2)c2sc(NC(=O)N3CCC4(CCOCC4)C3)nc12 [Compound 119]
*A* < 100 nM

*Q* Same for COc1ccc(C2CCOCC2)c2sc(NC(=O)N3CCOCC3)nc12 [reference compound]
*A* < 1000 nM

*Q* Same for COc1ccc(N2CCOCC2)c2sc(NC(=O)N3CCCCC3)nc12 [drawing 191, reference compound]
*A* < 1000 nM

*Q* Same for COc1nc(F)c(C2CCOCC2)c2sc(NC(=O)c3ccc(C(=O)N(C)CCO)cc3)nc12 [Compound 50]
*A* < 10 nM

---

target: human A1 receptor (Homo sapiens, UniProt P30542); construct: expressed in transfected cells; host or cells: CHO; assay: Functional A1 receptor activity, recombinant CHO cells, cAMP (HTRF), forskolin, agonist CPA; assay type: cell-based; settings: recombinant CHO cells, forskolin, agonist CPA; read-out: Functional A1 receptor activity, CHO, cAMP, IC50
Sequence (P30542 whole entry): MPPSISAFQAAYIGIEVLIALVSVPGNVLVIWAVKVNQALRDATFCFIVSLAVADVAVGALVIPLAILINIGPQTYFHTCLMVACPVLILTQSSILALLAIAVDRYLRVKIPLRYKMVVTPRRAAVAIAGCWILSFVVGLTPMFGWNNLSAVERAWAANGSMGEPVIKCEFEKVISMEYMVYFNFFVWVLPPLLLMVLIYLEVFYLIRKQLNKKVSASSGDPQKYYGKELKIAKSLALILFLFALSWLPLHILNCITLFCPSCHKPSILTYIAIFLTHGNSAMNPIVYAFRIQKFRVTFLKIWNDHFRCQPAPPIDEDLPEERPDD
OBSERVATION_TYPE: IC50

*Q* Record lookup: for human A1 receptor (Homo sapiens, UniProt P30542), what IC50 belongs to COc1ncc(C2=CCOCC2)c2sc(NC(=O)N3CCC(N4C(=O)CNC4=O)CC3)nc12 [Compound 131] ?
*A* < 1000 nM

*Q* Same for COc1ncc(C2=CCOCC2)c2sc(NC(=O)c3c[nH]c(-c4cccnc4)n3)nc12 [Compound 140]
*A* < 1000 nM

*Q* Same for COCCn1cc(C(=O)Nc2nc3c(OC)nc(F)c(C4CCOCC4)c3s2)cn1 [Compound 22]
*A* < 1000 nM

*Q* Same for COc1ncc(-c2cnn(C(F)F)c2)c2sc(NC(=O)N3CCC4(CCOCC4)C3)nc12 [Compound 79]
*A* < 1000 nM

---

assay: Pharmacokinetic properties in mouse after single intravenous and oral administration; format: in vivo; settings: female, plasma, 0.2 mg/kg, dose-normalized to 1 mg/kg
OBSERVATION_TYPE: Cmax (ng/mL)
Please reply with the bare figure in ng/mL and do not write the unit itself.

*Q* Quick check: Cmax of `COc1ncc(C2=CCOCC2)c2sc(NC(=O)N3CC[C@@]4(CCCOC4)C3)nc12` ?
*A* 500

---

Exercise: for every item that follows, state its recorded IC50.
system: human T cells; experiment: hTcell data, IL-2 (human T cells, IL-2 readout; method not given); format: cell-based; details: compounds of the present invention

*Q* Quick check: IC50 of COc1ncc(C2=CCOCC2)c2sc(NC(=O)N3CCC4(CCCOC4)C3)nc12 (stereo not drawn) ?
*A* < 0.01 µM

*Q* Same for `COc1ncc(C2=CCOCC2)c2sc(NC(=O)N3CC[C@@]4(CCCOC4)C3)nc12`
*A* < 0.01 µM

*Q* Same for `COc1ncc(C2=CCOCC2)c2sc(NC(=O)N3CC[C@]4(CCCOC4)C3)nc12`
*A* < 0.01 µM
